# Tested on: Fusarium solani
# test.name: Antifungal activity against Fusarium solani by agar well diffusion method
# Assay type: functional
metric.name: MIC (µg/mL)

Examples with answers:
Cc1ccc(NC(=O)Nc2ccc(-c3cc(Nc4cccc(C(F)(F)F)c4)ncn3)cc2)cc1C	60
FC(F)(F)c1cccc(Nc2cc(-c3ccc(NC(=S)Nc4ccc(Cl)cc4)cc3)ncn2)c1	90
O=S(=O)(Nc1ccc(-c2cc(Nc3cccc(C(F)(F)F)c3)ncn2)cc1)c1ccccc1OC(F)(F)F	20
Cc1ccc(F)cc1S(=O)(=O)Nc1ccc(-c2cc(Nc3cccc(C(F)(F)F)c3)ncn2)cc1	90
Fc1ccccc1NC(=S)Nc1ccc(-c2cc(Nc3cccc(C(F)(F)F)c3)ncn2)cc1	90
COc1ccc(OC)c(S(=O)(=O)Nc2ccc(-c3cc(Nc4cccc(C(F)(F)F)c4)ncn3)cc2)c1	15

I = FC(F)(F)c1cccc(Nc2cc(-c3ccc(NC(=S)Nc4ccccc4C(F)(F)F)cc3)ncn2)c1
II = Nc1ccc(-c2cc(Nc3cccc(C(F)(F)F)c3)ncn2)cc1
Query string: Could you please tell me which of these two has the higher MIC: I or II ? Answer = label.
Result string: II

The values you see were collected from ChEMBL document CHEMBL2021896.
